Reference source for all entries: PubChem BioAssay (NCATS)

Record form. Attribute: max response. Fill in for each entry.
Tested on: HaCat
protocolDescription: Cytotoxic Profiling of Annotated Libraries Using Quantitative High-Throughput Screening (AID 1296008); also: % is scaled to controls: 0 for no effect and ±100 for the full control effect; nearly all actives have a fitted effect of over 60% in size
experimentalSetup: Five cell lines viability, CellTiter-Glo ATP luminescence, 48-72 h; hits give low values
Records with an inconclusive call do not appear.
Numbers only, in %.

Known max response results, listed for orientation:
| compound | valueUnits | max response |
| --- | --- | --- |
| COC1=CC(=O)C[C@@H](C)[C@]12Oc1cc(OC)cc(OC)c1C2=O | % | -2.69 |
| CC(=O)c1c(O)cc2c(c1C)C(=O)CC(O)C2 (stereo unspecified) | % | 1.58 |
| OCc1ccccc1O[C@@H]1O[C@H](CO)[C@@H](O)[C@H](O)[C@H]1O | % | -0.335 |
| O=C(NC[C@H](O)CN1CCc2ccccc2C1)c1cc(NC2COC2)ncn1 | % | -0.448 |
| CC(=O)N[C@H]1[C@H](O[C@H]2CC[C@@]3(C)C(CC[C@]4(C)C3CC=C3C5CC(C)(C)CC[C@]5(C(=O)O)[C@H](O[C@@H]5O[C@H](CO)[C@@H](O)[C@H](O)[C@H]5O)C[C@]34C)C2(C)C)O[C@H](CO[C@@H]2OC[C@H](O)[C@H](O)[C@H]2O[C@@H]2OC[C@@H](O)[C@H](O)[C@H]2O)[C@@H](O)[C@@H]1O (stereo partly specified) | % | -15.2 |

Please go through the list and note max response for each compound.
1. COc1cc(C2Oc3c(O)cc(CCCO)cc3C2CO)ccc1O[C@H]1O[C@H](C)[C@@H](O)[C@H](O)[C@@H]1O (stereo partly specified)
2. COC(=O)CC1(O)C(=O)Nc2ccccc21 (stereo unspecified)
3. COc1cc(CC(COC2OC(CO)C(O)C(O)C2O)c2cc(/C=C/CO)cc(OC)c2O)ccc1O (stereo unspecified)
4. C=C1[C@@H]2[C@H]3OC(=O)C(=C)[C@@H]3CC[C@@](C)(O)[C@@H]2C[C@@H]1O[C@@H]1O[C@H](CO)[C@@H](O)[C@H](O)[C@H]1O
5. CC1=CCC2C(C)(CO)CCCC2(CO)C1CO (stereo unspecified)
6. CN1C(=O)N[C@@H](Cc2c[nH]c3c(Cl)cccc23)C1=O

Resp:
3.18
-5.67
1.49
-10.8
-5.9
-0.267
